Values from the supplement of paper PMC9170038

Tested on: MS2 coat protein
Experiment: apparent KD of MS2 coat protein; higher = weaker reporter binding
Settings: Eterna round: R107; input ligand: tryptophan 2.4 mM
// values below are reported apparent KD of MS2 coat protein

ITEM SEQUENCE	apparent KD of MS2 coat protein [nM]
AAUAACAUGAGGAUCACCCAUGUAAAAGAUACCAGGGUGAUGAUCCUCCCUUGGCAGCUUACAGCUGAUCAAUAAGAUCGGCUGA [TheoAS #Tail #MS2BeforeAptamer #BothOrNeither]	184
UGUAUGUGAUCUGAUACCAGUCCAACUGGUAAAACAUGAGGAUCACCCAUGUAAAAUUGGGACCCUUGGCAGCAGAUCGCAUACU [ThBS 2]	615
CCUAUCCAGUCGGCCGCCACUGACCAUUUGGAACAGUGGGUGAAUACAUGAGGAUCACCCAUGUACAGGACCGGGACUGUAUAGG [Ex Tryptophan B 21]	27.9
AGCAUUGUAACAGAUACCAGACUUUUAAUGCCUCUAAUAACAUGAGGAUCACCCAUGUAUGUCCCUUGGCAGCUGUUAUGAUGCA [JR_ExcTheophyB_Sub008]	112
CUGGACAUGAGGAUCACCCAUGUAAAUCCUCGAGGACCGGUACGGCCGCCACUCGAACGAGUGGCGCGCGAGUGCGCACUCGCGC [aKa]	28.3
AGCCCUGUACUAGAUACCAGCUACAUGAGGAUCACCCAUGUGCGUCAAGACUGACUGUGUAGCCCUUGGCAGCUGCUCGCAUGUA [Exclusion - Theophylline B (Freestyle 2)]	20.9
GAUAGUUGAUGGGAUACCAGCGUGCACAUGAGGAUCACCCAUGUGGUUCGUGUACGACGGCGCCCUUGGCAGCCCAUAUUGUGUA [#13 Same State - Theophylline B]	181
AAAUAAAUACAUGAGGAUCACCCAUGUGAAGGAGCGCGCGUUAGCGCAGGUAGGUCGCACAUGAACUCCAAAGUGCGAAAGCACA [MAT - Exclusion Arginine A - Mod of Eli - D9]	20.9
UGUAUGUGAUCUGAUACCAGUCCAACUGGUAAAACCUGAGGAUCACCCUGGUAAAAUUGGGACCCUUGGCAGCAGAUCGCAUACU	560
UGACAUUGCUCAGAUACCAGACAUGAGGAUCACCCAUGUACCAAGAGUACAAAUUAAAAUGUCCCUUGGCAGCUGAGCAAUGUCU [TheoBX 7 #MS2Left #Theo2]	19.3
AUGUCACAUGAGGAUCACCCAUGUAUGGAUACCAGUUUAGUGAAUAACCCUUGGCAGCCAAGGAUGCGACAGAAAUCCGGAAAAC [theeternabot_sameState_MS2_Theo_A_22]	20.5

----------
// values below are reported apparent KD of MS2 coat protein
Test system: MS2 coat protein
Test: apparent KD of MS2 coat protein; higher = weaker reporter binding
Settings: Eterna round: R107; input ligand: arginine 13.2 mM
VALUE KIND: apparent KD of MS2 coat protein (µM)

ITEM SEQUENCE	UNIT INFO	MEASURED NUMBER
AUACAUGAGGAUCACCCAUGUAUAGUCGAUACCAGCUCAAGGAAGAGCCCUUGGCAGCGACACUGGUAUCCAUGGGUGAUACCAG [(Ms2)-(Theo)-(T)'-(M)'-(T)''_Design4]	µM	0.0178
UUUUUCGUAGGUUAUAGUUUAGAAACUGAAGGAGCGUGGUAAUACACAGGUAGGUCGCAGAUUUUACAUGAGGAUCACCCAUGUU [JR_ExcArginiA_Sub013]	µM	0.0235
AGUCUGGACUCGGCCGCCACUCGUGAUGCUUUGGCACAUGAGGAUCACCCAUGUGGUCGGCCUUAGAGGACCGGGAGUACCAGUC [Ariaredle]	µM	0.0523
CACAUGAGGAUCACCCAUGUCUGAACUGAAGGAGCGCUAAAUAAGGCAGGUAGGUCGCGGAAUUUUGUGUGCAUAUGCACAUGGG [9.P]	µM	0.0172
UUCGUUUGCGGAAGGAGCGACGGACAUCGGUGAACGACGCACAUGAGGAUCACCCAUGUACGUCAGGUAGGUCGCCGCUAAGAGU [Tibira]	µM	0.0155
UGCCGAGACGUGGAUUACCCAUGUACCGAAGGAGCGCCCGAAAGGGCAGGUAGGUCGCGGAGGACAUGAGGAUCACCCAUGUCGA	µM	0.0838
UUGAACAUGAGGAUCACCCAUGUGGAUGAUACCAGCUAAAACAUAAGCCCUUGGCAGCAUUAAAAUGAAAUAUCGAAAAGGAAAG [theeternabot_sameState_MS2_Theo_A_1]	µM	0.0951
AGUAACAUGAGGAUCACCCAUGUAUGAGAAGGAGCGUGUUUUAACACAGGUAGGUCGCUCAAUAUUAAUUUAUUAGAUACAUUUA [JR_SSArginiA_Sub006]	µM	0.0189
GCACGACAUGAGGAUCACCCAUGUGCCGAUACCAGCCGGAUAUACGGCCCUUGGCAGCGGAGUGGAUCCGGAGGACCAUGGGUAA [Same State Theophylline A GF7]	µM	0.00216
AGCUACUCGUUCCUCAUGUACGAGUGGCAACGAGGACCGGUACGGCCGCCACUCGAAUAAACAUGAGGAUCACCCAUGUACAAAU [T''-M-T'-T-MS2 - Design 8]	µM	0.0429
GCUACGUGCUGAAGGAGCGUGGACCUAAACAUGAGGAUCACCCAUGUCGUGUAGGCAGAUUCACAGGUAGGUCGCAGCACGUAGC [SSAB NP+V+V2 #14 Same Structure]	µM	0.0612
GGAUGAAACUGAAGGAGCGAGAACACAAGAAUGGGUCAAACAUGAGGAUCACCCAUGUAAUCUCAGGUAGGUCGCAGUAUCCCUU [Exclusion Arginine B GF 10]	µM	0.044
